- Tested on: Fibroblast
- RUN_DESCRIPTION: Multiplex assay against human fibroblast
- Assay type: toxicity, cell-based
- CONDITION_PARAMETERS: 12 h, 1 µM, compound concentration 1 uM, replicate 1
Can you tell me Population Hoechst High Intensity Objects (%) for the items I'm about to list?
Numbers only, in %.

See these solved cases before continuing.
>>> value("O=C(O)c1ccc2cc(-c3ccc(O)c(C45CC6CC(CC(C6)C4)C5)c3)ccc2c1")
18
>>> value("Cl.Cl.Nc1ncnc2c1c(-c1cccc(OCc3ccccc3)c1)cn2[C@H]1C[C@@H](CN2CCC2)C1")
22
>>> value("CNc1oc(-c2cccc3ccccc23)nc1C#N")
70
>>> value("CNC(=O)c1cc(Oc2ccc(NC(=O)Nc3cc(C(C)(C)C)nn3-c3ccc4ncccc4c3)c(F)c2)ccn1")
10
>>> value("CC(=O)c1cc(-c2cc(C(=O)NC3CC3)ccc2C)c2ncccn12")
16

# batch size: 4; output Population Hoechst High Intensity Objects (%) per entry
1. CC(C)N1CCC(C)(C)c2cc(C#Cc3ccc(C(=O)O)cc3)ccc21
2. Cc1cn(-c2cc(NC(=O)c3ccc4c(c3)CN(c3cncnc3)C[C@@H]4C)cc(C(F)(F)F)c2)cn1
3. COc1cc2c(NC3CCN(C(C)C)CC3)nc(N3CCC(F)(F)CC3)nc2cc1OCCCN1CCCC1
4. COc1ccc(NS(=O)(=O)c2sc3ccc(Cl)cc3c2C)cc1N1CCNCC1.Cl

Output:
1. 41
2. 15
3. 11
4. 10
